subject_of_test: Protein phosphatase methylesterase 1 (Homo sapiens) (UniProt Q9Y570)
Sequence (Q9Y570 whole entry, looked up): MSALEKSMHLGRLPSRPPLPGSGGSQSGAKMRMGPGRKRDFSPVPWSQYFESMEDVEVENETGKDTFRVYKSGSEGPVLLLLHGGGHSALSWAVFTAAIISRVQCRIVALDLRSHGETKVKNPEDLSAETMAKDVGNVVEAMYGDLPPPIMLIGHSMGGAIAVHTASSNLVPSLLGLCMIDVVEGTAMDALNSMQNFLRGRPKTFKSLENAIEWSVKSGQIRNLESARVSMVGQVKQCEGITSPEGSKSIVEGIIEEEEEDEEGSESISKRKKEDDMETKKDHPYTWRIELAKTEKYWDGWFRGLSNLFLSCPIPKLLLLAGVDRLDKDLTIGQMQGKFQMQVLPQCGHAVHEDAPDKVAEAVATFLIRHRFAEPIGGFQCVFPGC
assay_procedure: PME-1 inhibitors in HeLa proteome, late-stage follow-up, selectivity assay, cell lysate, gel-based competitive ABPP, fluorescence, powder samples (AID 463149);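 further: 0% = DMSO-treated band intensity and 100% = blank gel background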
study_conditions: HeLa soluble proteome, FP-Rh fluorescence, PME-1, at 0.1 µM, stronger effect = higher value
metric: inhibition

1) COC(=O)N1C(=O)[C@](c2ccccc2)(C2CCCC2)N1C(=O)OC    100%
2) COC(=O)N1C(=O)[C@](c2ccccc2)(C2CCCCC2)N1C(=O)OC    90%
3) COC(=O)N1C(=O)[C@@](c2ccccc2)(C2CCCC2)N1C(=O)OC    50%
4) COC(=O)N1C(=O)[C@](CC(C)C)(c2ccccc2)N1C(=O)OC    100%

* * *

We begin with a simple list: items and their reported inhibition.
Tested on: Anti-Target ABHD10
assay_procedure: PME-1 inhibitors in HeLa proteome, late-stage follow-up, selectivity assay, cell lysate, gel-based competitive ABPP, fluorescence, powder samples (AID 463149);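 further: 0% = DMSO-treated band intensity and 100% = blank gel background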
study_conditions: HeLa soluble proteome, FP-Rh fluorescence, measured here: Anti-Target ABHD10, at 20 µM, stronger effect = higher value
metric: inhibition (%)

1. COC(=O)N1C(=O)[C@](Cc2ccccc2)(c2ccccc2)N1C(=O)OC    0
2. COC(=O)N1C(=O)[C@](c2ccc(OC)cc2)(C(C)C)N1C(=O)OC    0
3. COC(=O)N1C(=O)[C@@](c2ccccc2)(C(C)C)N1C(=O)OC    0
4. COC(=O)N1C(=O)[C@](c2ccccc2)(C(C)C)N1C(=O)OC    0
5. CC[C@@]1(c2ccccc2C)C(=O)N(C(=O)OC)N1C(=O)OC    0
6. CCOC(=O)N1C(=O)[C@](CC)(c2ccccc2)N1C(=O)OCC    0
7. COC(=O)N1C(=O)[C@](c2ccccc2)(C2CCCC2)N1C(=O)OC    0
8. COC(=O)N1C(=O)[C@@](c2ccc(OC)cc2)(C(C)C)N1C(=O)OC    0
9. CC[C@]1(c2ccccc2)C(=O)N(C(=O)OC)N1C(=O)OC    0
10. CCOC(=O)N1C(=O)[C@@](CC)(c2ccccc2)N1C(=O)OCC    50
11. COC(=O)N1C(=O)[C@@](Cc2ccccc2)(c2ccccc2)N1C(=O)OC    50
12. CC[C@]1(c2ccccc2C)C(=O)N(C(=O)OC)N1C(=O)OC    0
13. CC[C@@]1(c2ccccc2)C(=O)N(C(=O)OC)N1C(=O)OC    50
14. CC[C@]1(c2cccc(C)c2)C(=O)N(C(=O)OC)N1C(=O)OC    0
15. COC(=O)N1C(=O)[C@](CC(C)C)(c2ccccc2)N1C(=O)OC    0
16. CCOC(=O)N1C(=O)[C@](c2ccc(Cl)cc2)(C(C)C)N1C(=O)OCC    0
17. COC(=O)N1C(=O)[C@](c2ccsc2)(C(C)C)N1C(=O)OC    0
18. COC(=O)N1C(=O)[C@@](c2ccccc2)(C2CCCCC2)N1C(=O)OC    0

* * *

Test system: Anti-Target PREP
assay_procedure: PME-1 inhibitors in HeLa proteome, late-stage follow-up, selectivity assay, cell lysate, gel-based competitive ABPP, fluorescence, powder samples (AID 463149);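 further: 0% = DMSO-treated band intensity and 100% = blank gel background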
study_conditions: HeLa soluble proteome, FP-Rh fluorescence, measured here: Anti-Target PREP, at 20 µM, stronger effect = higher value
metric: inhibition (%)

1) CCOC(=O)N1C(=O)[C@](CC)(c2ccccc2)N1C(=O)OCC    0
2) CC[C@]1(c2ccccc2C)C(=O)N(C(=O)OC)N1C(=O)OC    0
3) COC(=O)N1C(=O)[C@](c2ccc(OC)cc2)(C(C)C)N1C(=O)OC    0
4) COC(=O)N1C(=O)[C@](c2ccccc2)(C(C)C)N1C(=O)OC    0
5) COC(=O)N1C(=O)[C@](c2ccccc2)(C2CCCCC2)N1C(=O)OC    0
6) COC(=O)N1C(=O)[C@](c2ccccc2)(C2CCCC2)N1C(=O)OC    0
7) CC[C@]1(c2ccccc2)C(=O)N(C(=O)OC)N1C(=O)OC    0
8) COC(=O)N1C(=O)[C@](Cc2ccccc2)(c2ccccc2)N1C(=O)OC    0
9) COC(=O)N1C(=O)[C@@](Cc2ccccc2)(c2ccccc2)N1C(=O)OC    0
10) CC[C@@]1(c2ccccc2C)C(=O)N(C(=O)OC)N1C(=O)OC    0
11) COC(=O)N1C(=O)[C@@](c2ccccc2)(C(C)C)N1C(=O)OC    0
